# study.target: PPARG (peroxisome proliferator-activated receptor gamma) (Homo sapiens, UniProt P37231)
# Construct: expressed in transfected cells; host or cells: HepG2
# Sequence (P37231 whole entry): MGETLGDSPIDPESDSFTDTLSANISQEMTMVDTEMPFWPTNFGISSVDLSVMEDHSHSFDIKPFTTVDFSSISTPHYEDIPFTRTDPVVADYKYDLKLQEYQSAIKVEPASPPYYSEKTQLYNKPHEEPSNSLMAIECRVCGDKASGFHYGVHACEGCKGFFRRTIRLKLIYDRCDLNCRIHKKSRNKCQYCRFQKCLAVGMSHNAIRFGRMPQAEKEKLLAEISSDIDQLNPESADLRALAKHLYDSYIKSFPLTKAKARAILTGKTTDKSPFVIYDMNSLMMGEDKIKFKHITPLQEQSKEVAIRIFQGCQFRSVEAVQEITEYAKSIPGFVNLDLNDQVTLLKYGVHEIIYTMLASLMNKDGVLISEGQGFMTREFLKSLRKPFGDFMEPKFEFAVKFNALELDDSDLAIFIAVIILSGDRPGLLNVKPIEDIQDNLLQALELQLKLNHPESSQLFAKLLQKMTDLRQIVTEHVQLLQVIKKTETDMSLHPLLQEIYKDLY
# method.notes: ATG_PPARg_TRANS: Factorial reporter gene assay (HepG2)
# Assay type: cell-based
# test.parameters: HepG2
recorded.metric: ATG_PPARg_TRANS
Format: numeric value only, no unit, no commentary.

# annotated cases, reported ATG_PPARg_TRANS shown
>  <molecule>
CCCCC(CC)CN1C(=O)C2C3C=CC(C3)C2C1=O (stereo not shown)

>  <ATG_PPARg_TRANS>
4.284

$$$$
>  <molecule>
CC(C)Nc1nc(Cl)nc(NC(C)C)n1

>  <ATG_PPARg_TRANS>
4.481

$$$$
>  <molecule>
O=C(Nc1ccc([N+](=O)[O-])cc1Cl)c1cc(Cl)ccc1O

>  <ATG_PPARg_TRANS>
6.252

$$$$
>  <molecule>
CCC(CC)Nc1c([N+](=O)[O-])cc(C)c(C)c1[N+](=O)[O-]

>  <ATG_PPARg_TRANS>
4.167

$$$$
>  <molecule>
O=S(=O)(O)C(F)(F)C(F)(F)C(F)(F)C(F)(F)C(F)(F)C(F)(F)C(F)(F)C(F)(F)F

>  <ATG_PPARg_TRANS>
4.585

$$$$
>  <molecule>
CNC(=S)[S-].O.O.O.[Na+]

>  <ATG_PPARg_TRANS>
4.569

$$$$
>  <molecule>
CCCN(CCOc1c(Cl)cc(Cl)cc1Cl)C(=O)n1ccnc1

>  <ATG_PPARg_TRANS>
5.456

$$$$
>  <molecule>
CC(C)Oc1cc(-n2nc(C(C)(C)C)oc2=O)c(Cl)cc1Cl

>  <ATG_PPARg_TRANS>
4.31

$$$$
>  <molecule>
CCCCOCCOCCOCc1cc2c(cc1CCC)OCO2

>  <ATG_PPARg_TRANS>
4.602

$$$$

Moving on to another molecule below.
Lookup: Name the recorded ATG_PPARg_TRANS for CCc1cccc(C)c1N(C(=O)CCl)C(C)COC (stereo not shown) .
Found: 4.854

Where do the numbers come from? From paper PMC3038857.
